What CC50 at 48 h was measured for each of the following?
Test: AlamarBlue cell viability assay, non-cancerous intestine FHs-74Int cells
Settings: human, FHs-74Int non-cancerous intestine cells, Human Cell Viability CC50 Intestine (FHs 74Int), non-cancerous intestine cells, AlamarBlue, 48 h
Form entry: value (µM) — number only.

Can you look up the measured CC50 at 48 h of O=[N+]([O-])c1ccc(O)c2ncccc12 [Nitroxoline, reference compound] for me?
41

Ok, now COc1ccc(-c2ccc3cc(C(=O)O)ccc3c2)cc1C12CC3CC(CC(C3)C1)C2 [Compound 25, Adapalene, reference compound]
18.5

Now consider O=C(N/N=C/c1ccc([N+](=O)[O-])o1)c1ccccc1Oc1ccccc1 [Compound 127] .
55

Field entry: CN(C)c1ccc(C(=C2C=CC(=[N+](C)C)C=C2)c2ccc(N(C)C)cc2)cc1 [Compound 56, Crystal Violet, reference compound]
1.6

Also need O=C(N/N=C/c1ccc(O)c2ncccc12)c1cccs1 [Compound 135] , thanks.
86

Please answer likewise for COc1ccc(C(=O)N/N=C/c2ccc(O)c3ncccc23)cc1 [Compound 18]
54.9

Now this one: CC1CS(=O)(=O)CCN1/N=C/c1ccc(O)c2ncccc12 (stereo not shown) [Compound 134]
87

Another compound: O=C(N/N=C/c1ccc(O)c2ncccc12)c1cccc(Oc2ccccc2)c1 [Compound 143]
21

Same lookup for O=C(N/N=C/c1ccc(O)c2ncccc12)c1ccc(Cl)s1 [Compound 136] , please.
42

O=C(N/N=C/c1ccc([N+](=O)[O-])o1)c1cccc2ccccc12 [Compound 126] ?
52

// repeat for O=C(N/N=C/c1ccc(O)c2ncccc12)c1cccc2ccccc12 [Compound 141] and report
60

Would you mind doing O=C(N/N=C/c1ccc(O)c2ncccc12)c1ccccc1 [Compound 137] as well?
57

---

Please provide measured CC50 at 48 h for the entries that follow.
Test: AlamarBlue cell viability assay, non-cancerous colon FHC cells
Conditions: human, FHC non-cancerous colon cells, Human Cell Viability CC50 Colon (FHC), non-cancerous colon cells, AlamarBlue, 48 h

If you can, please state the reported CC50 at 48 h value of O=C(N/N=C/c1ccc([N+](=O)[O-])o1)c1cccc(Oc2ccccc2)c1 [Compound 128] .
61 µM

Quick one: CCOc1ccc(S(=O)(=O)Nc2ccc(C(=O)N/N=C/c3ccc(O)c4ncccc34)cc2)cc1 [Compound 147]
52 µM

Query O=C(N/N=C/c1ccc(O)c2ncccc12)c1cccc2ccccc12 [Compound 141] next
46 µM

O=C(N/N=C/c1ccc([N+](=O)[O-])o1)c1cccs1 [Compound 120] ?
84 µM

Same question, CN(C)c1ccc(C(=C2C=CC(=[N+](C)C)C=C2)c2ccc(N(C)C)cc2)cc1 [Compound 56, Crystal Violet, reference compound] this time
8.6 µM

For O=C(N/N=C/c1ccc([N+](=O)[O-])o1)c1cccc2ccccc12 [Compound 126] then?
58 µM

Could you do the same for COc1cc(NC(C)CCCN)c2ncccc2c1 (centres unmarked) [Compound 71, Primaquine, reference compound] , please?
77.4 µM

Item: CCOc1ccc(S(=O)(=O)Nc2ccc(C(=O)N/N=C/c3ccc([N+](=O)[O-])o3)cc2)cc1 [Compound 132]
89 µM

---

Assay: AlamarBlue cell viability assay, non-cancerous intestine FHs-74Int cells
Conditions: human, FHs-74Int non-cancerous intestine cells, Human Cell Viability CC50 Intestine (FHs 74Int), non-cancerous intestine cells, AlamarBlue, 48 h
Rule: CC50 at 48 h below 50 µM gives 1.0, anything at or above gives 0.0.

Strictly below 50 µM: is that where CC50 at 48 h of O=C(N/N=C/c1ccc(O)c2ncccc12)c1ccc(NS(=O)(=O)c2ccc(Br)cc2)cc1 sits?
0.0

And for O=C(N/N=C/c1ccc([N+](=O)[O-])o1)c1ccc(NS(=O)(=O)c2cccs2)cc1 ?
0.0

Likewise for O=C(N/N=C/c1ccc([N+](=O)[O-])o1)c1cccc(Oc2ccccc2)c1 ?
0.0

Subsequent entry: O=Cc1ccc(O)c2ncccc12
1.0

For O=C(N/N=C/c1ccc([N+](=O)[O-])o1)c1ccc(O)cc1 [Nifuroxazide (Nfz), Nifuroxazide, reference compound] then?
0.0

Same question, COc1ccc(C(=O)N/N=C/c2ccc([N+](=O)[O-])o2)cc1 this time
1.0

Same question, O=Cc1ccc([N+](=O)[O-])o1 this time
0.0

# repeat for O=C(N/N=C/c1ccc(O)c2ncccc12)c1ccccc1Oc1ccccc1
0.0

---

Test system: FHC cells
Assay: AlamarBlue cell viability assay, non-cancerous colon FHC cells
Details: read-out: Human Cell Viability CC50 Colon (FHC); non-cancerous colon cells, AlamarBlue, 48 h
attribute.measured: CC50

Fill in: CC50 of COc1ccc(C(=O)N/N=C/c2ccc(O)c3ncccc23)cc1 is ___
28 µM

---

Experiment: AlamarBlue cell viability assay, non-cancerous colon FHC cells
Conditions: human, FHC non-cancerous colon cells, Human Cell Viability CC50 Colon (FHC), non-cancerous colon cells, AlamarBlue, 48 h
What CC50 at 48 h was measured for each of the following?
Could you give me the number in µM? Just the number is fine.

What does the record list as CC50 at 48 h for O=C(N/N=C/c1ccc([N+](=O)[O-])o1)c1ccccc1Oc1ccccc1 ?
49

Now consider CN(C)c1ccc2nc3ccc(=[N+](C)C)cc-3sc2c1 [Compound 74, Methylene blue trihydrate, reference compound] .
31.3

Request: Oc1cccc(C(Nc2nccs2)c2ccc3cccnc3c2O)c1 (centres unmarked)
66.6

Next: CCN(CC)S(=O)(=O)c1cccc(C(=O)N/N=C/c2ccc(O)c3ncccc23)c1
34

And for O=C(N/N=C/c1ccc([N+](=O)[O-])o1)c1ccc(Cl)s1 ?
51

What do you have for O=C(N/N=C/c1ccc(O)c2ncccc12)c1ccccc1Oc1ccccc1 ?
71

Then this molecule: COc1ccc(C(=O)N/N=C/c2ccc(O)c3ncccc23)cc1
28.4

And the next one, O=C(N/N=C/c1ccc([N+](=O)[O-])o1)c1ccc(O)cc1 [Nifuroxazide (Nfz), Nifuroxazide, reference compound] ?
66

Try this molecule too: O=C(N/N=C/c1ccc([N+](=O)[O-])o1)c1ccncc1
70

And for O=Cc1ccc([N+](=O)[O-])o1 ?
53

---

Experiment: AlamarBlue cell viability assay, non-cancerous intestine FHs-74Int cells
Conditions: human, FHs-74Int non-cancerous intestine cells, Human Cell Viability CC50 Intestine (FHs 74Int), non-cancerous intestine cells, AlamarBlue, 48 h
attribute.measured: CC50 at 48 h (µM)
Kindly answer with a numeric value in µM, unit omitted.

Dear colleague, I am looking for the recorded CC50 at 48 h of the following compound: O=C(N/N=C/c1ccc([N+](=O)[O-])o1)c1ccc(Cl)s1 [Compound 121]
49

And the next one, O=C(N/N=C/c1ccc([N+](=O)[O-])o1)c1ccccc1 [Compound 122] ?
71

Also CCOc1ccc(S(=O)(=O)Nc2ccc(C(=O)N/N=C/c3ccc(O)c4ncccc34)cc2)cc1 [Compound 147] ?
40

Next compound up: CN(C)c1ccc2nc3ccc(=[N+](C)C)cc-3sc2c1 [Compound 74, Methylene blue trihydrate, reference compound]
23.4

---

GI50 data for NCI-60 cancer cell panel follow.

Quick check: GI50 of O=C(N/N=C/c1ccc([N+](=O)[O-])o1)c1cccc(Oc2ccccc2)c1 ?
1000 to 31000 nM

Now give it for O=C(N/N=C/c1ccc(O)c2ncccc12)c1ccc(O)cc1 too.
1000 to 5000 nM

COc1ccccc1S(=O)(=O)Nc1ccc(-c2nc3cc(NS(=O)(=O)c4ccccc4OC)ccc3o2)cc1 , same question.
1000 to 5000 nM

# iterate: Cc1ccc(S(=O)(=O)Nc2ccc(-c3nc4cc(NS(=O)(=O)c5ccc(C)cc5)ccc4o3)cc2)cc1
1000 to 5000 nM

Would you mind doing CCOc1ccc(S(=O)(=O)Nc2ccc(C(=O)N/N=C/c3ccc(O)c4ncccc34)cc2)cc1 as well?
200 to 400 nM

# repeat for O=C(N/N=C/c1ccc(O)c2ncccc12)c1cccc(Oc2ccccc2)c1
200 to 400 nM

Consider next the compound O=C(Nc1ccc(Sc2nc3ccccc3s2)c(Cl)c1)c1cc(Br)ccc1O in the same way.
1000 to 5000 nM

---

Test: AlamarBlue cell viability assay, non-cancerous colon FHC cells
Settings: human, FHC non-cancerous colon cells, Human Cell Viability CC50 Colon (FHC), non-cancerous colon cells, AlamarBlue, 48 h
I'd appreciate it if you could supply log10(CC50 at 48 h) values for the items below.
The figures below represent log10 of CC50 at 48 h, where CC50 at 48 h is stated in µM.

Fill in the blank: the reported log10(CC50 at 48 h) of COc1ccc(-c2ccc3cc(C(=O)O)ccc3c2)cc1C12CC3CC(CC(C3)C1)C2 [Compound 25, Adapalene, reference compound] is ____.
1.64

Next record, please: O=C(N/N=C/c1ccc(O)c2ncccc12)c1ccccc1
1.87

Also O=C(N/N=C/c1ccc(O)c2ncccc12)c1ccc(Cl)s1 , if possible.
1.40

Now consider O=C(N/N=C/c1ccc(O)c2ncccc12)c1cccc(Oc2ccccc2)c1 .
1.61

Would you kindly repeat that for CN(C)c1ccc(C(=O)N/N=C/c2ccc(O)c3ncccc23)cc1 ?
1.54

Next molecule: O=C(N/N=C/c1ccc(O)c2ncccc12)c1ccc(NS(=O)(=O)c2cccs2)cc1
1.38

Please do the same for O=[N+]([O-])c1ccc(O)c2ncccc12 [Nitroxoline, reference compound] as well.
1.45

O=C(N/N=C/c1ccc(O)c2ncccc12)c1ccc(NS(=O)(=O)c2ccc(Br)cc2)cc1 , same question.
1.77

Moving on to the next molecule: O=Cc1ccc(O)c2ncccc12
0.64
